Tested on: MDA-MB-231
Assay: Cancer cell antiproliferative activity / cell viability in MDA-MB-231 cells (72 h treatment)
Type: cell-based
Settings: Homo sapiens, read-out: BRD4 (IC50)
Experimental: The human breast cancer cell line [MDA-MB-231] was cultured in RPMI medium with the addition of 10% fetal bovine serum, penicillin [100U/ml], and streptomycin [[…]]. The synthesized compounds were prepared with a 10 mM or 50 mM raw material solution dissolved in DMSO [dimethyl sulfoxide], and were diluted sequentially and treated. [RPMI2650] and [SNU2972] were cultivated under specific conditions. […]
ATTRIBUTE_MEASURED: IC50

Worked set:
- Cc1sc2c(c1C)C(c1ccc(Cl)cc1)=N[C@@H](CC(=O)N1CCC(CN3CCN(c4cc5c(=O)n(C6CCC(=O)NC6=O)ncc5cc4F)CC3)CC1)c1nnc(C)n1-2 (stereo partly drawn): < 100 nM
- Cc1sc2c(c1C)C(c1ccc(Cl)cc1)=N[C@@H](CC(=O)N1CC(N3CCN(c4ccc5c(=O)n(C6CCC(=O)NC6=O)ncc5c4)CC3)C1)c1nnc(C)n1-2 (stereo partly drawn): < 100 nM

Inquiry: Give IC50 for the following compound: Cc1sc2c(c1C)C(c1ccc(Cl)cc1)=N[C@@H](CC(=O)Nc1ccc(CN3CCN(c4ccc5c(=O)n(C6CCC(=O)NC6=O)nc(C)c5c4)CC3)cc1)c1nnc(C)n1-2 (stereo partly drawn)
Reply text: < 100 nM

====

Known DC50 of a selection of compounds
Target: UniProtKB O60885
Assay: BRD4 protein degradation by western blotting in RPMI2650 cells (24 h treatment)
Format: cell-based
Set-up: To evaluate the resolution of PROTAC for BRD4 expressed in cells; endogenous in cells; host or cells: RPMI2650
Details: RPM12650, read-out: BRD4 (DC50)

Worked set:
- CC[C@@H]1c2nnc(C)n2-c2cnc(Nc3ccc(C(=O)NC4CCN(CCCC#Cc5ccc6c(=O)n(C7CCC(=O)NC7=O)ncc6c5)CC4)cc3OC)nc2N1CC1CCCCC1 (some centres unmarked): > 1000 nM
- CC[C@@H]1c2nnc(C)n2-c2cnc(Nc3ccc(C(=O)N4CC(CN5CCN(c6ccc7c(=O)n(C8CCC(=O)NC8=O)nc(C)c7c6)CC5)C4)cc3OC)nc2N1CC1CCCCC1 (some centres unmarked): < 100 nM
- CC[C@@H]1c2nnc(C)n2-c2cnc(Nc3ccc(C(=O)N4CCN(c5ccc(NC6CCC(=O)NC6=O)cc5F)CC4)cc3OC)nc2N1CC1CCCCC1 (some centres unmarked): < 100 nM
- CC[C@H]1c2nnc(C)n2-c2cnc(Nc3ccc(C(=O)NC4CCN(CCC5CCN(c6ccc(NC7CCC(=O)NC7=O)cc6F)CC5)CC4)cc3OC)nc2N1CC1CCCCC1 (some centres unmarked) [ICT-0001564]: < 100 nM

Then this compound:
Inquiry: Give DC50 for the following compound: CC[C@@H]1c2nnc(C)n2-c2cnc(Nc3ccc(C(=O)N4CCN(CC5CCN(c6ccc7c(=O)n(C8CCC(=O)NC8=O)nc(C)c7c6)CC5)CC4)cc3OC)nc2N1CC1CCCCC1 (some centres unmarked)
Reply text: < 100 nM

====

Molecular target: BRD4-NUT (Homo sapiens, UniProt O60885+Q86Y26)
Construct: endogenous in cells; host or cells: RPMI2650
Test: BRD4-NUT protein degradation by western blotting in RPMI2650 cells (24 h treatment)
Type: cell-based
Settings: read-out: BRD4-NUT (DC50), RPMI2650
Known DC50 of a selection of compounds

* Cc1sc2c(c1C)C(c1ccc(Cl)cc1)=N[C@@H](CC(=O)Nc1ccc(OCCCC#Cc3ccc4c(=O)n(C5CCC(=O)NC5=O)ncc4c3)cc1)c1nnc(C)n1-2 (some centres unmarked) | > 1 µM

Inquiry: Please report the measured DC50 for Cc1sc2c(c1C)C(c1ccc(Cl)cc1)=N[C@@H](CC(=O)N1CCC(CN3CCN(c4cc5cnn(C6CCC(=O)NC6=O)c(=O)c5cc4F)CC3)CC1)c1nnc(C)n1-2 (some centres unmarked) tested on BRD4-NUT (Homo sapiens, UniProt O60885+Q86Y26).
Reply text: < 0.1 µM

Inquiry: Please report the measured DC50 for Cc1sc2c(c1C)C(c1ccc(Cl)cc1)=N[C@@H](CC(=O)N1CCC(CN3CCN(c4cc5c(C)nn(C6CCC(=O)NC6=O)c(=O)c5cc4F)CC3)CC1)c1nnc(C)n1-2 (some centres unmarked) tested on BRD4-NUT (Homo sapiens, UniProt O60885+Q86Y26).
Reply text: < 0.1 µM

Inquiry: Please report the measured DC50 for Cc1sc2c(c1C)C(c1ccc(Cl)cc1)=N[C@@H](CC(=O)N1CC(N3CCN(c4ccc5c(=O)n(C6CCC(=O)NC6=O)ncc5c4)CC3)C1)c1nnc(C)n1-2 (some centres unmarked) tested on BRD4-NUT (Homo sapiens, UniProt O60885+Q86Y26).
Reply text: < 0.1 µM

Inquiry: Please report the measured DC50 for Cc1sc2c(c1C)C(c1ccc(Cl)cc1)=N[C@@H](CC(=O)Nc1ccc(OC[C@@H]3CN(c4ccc5c(=O)n(C6CCC(=O)NC6=O)nc(C)c5c4)CCO3)cc1)c1nnc(C)n1-2 (some centres unmarked) tested on BRD4-NUT (Homo sapiens, UniProt O60885+Q86Y26).
Reply text: < 0.1 µM

Inquiry: Please report the measured DC50 for Cc1sc2c(c1C)C(c1ccc(Cl)cc1)=N[C@@H](CC(=O)N1CCC(CN3CCN(c4cc5c(=O)n(C6CCC(=O)NC6=O)ncc5cc4F)CC3)CC1)c1nnc(C)n1-2 (some centres unmarked) tested on BRD4-NUT (Homo sapiens, UniProt O60885+Q86Y26).
Reply text: < 0.1 µM

Inquiry: Please report the measured DC50 for Cc1sc2c(c1C)C(c1ccc(Cl)cc1)=N[C@@H](CC(=O)Nc1ccc(N3CCN(c4ccc5c(=O)n(C6CCC(=O)NC6=O)nc(C)c5c4)CC3)cc1)c1nnc(C)n1-2 (some centres unmarked) tested on BRD4-NUT (Homo sapiens, UniProt O60885+Q86Y26).
Reply text: < 0.1 µM

Inquiry: Please report the measured DC50 for Cc1sc2c(c1C)C(c1ccc(Cl)cc1)=N[C@@H](CC(=O)Nc1ccc(CN3CCN(c4ccc5c(=O)n(C6CCC(=O)NC6=O)nc(C)c5c4)CC3)cc1)c1nnc(C)n1-2 (some centres unmarked) tested on BRD4-NUT (Homo sapiens, UniProt O60885+Q86Y26).
Reply text: < 0.1 µM

Inquiry: Please report the measured DC50 for Cc1sc2c(c1C)C(c1ccc(Cl)cc1)=N[C@@H](CC(=O)Nc1ccc(OCCCCCc3ccc4c(=O)n(C5CCC(=O)NC5=O)ncc4c3)cc1)c1nnc(C)n1-2 (some centres unmarked) tested on BRD4-NUT (Homo sapiens, UniProt O60885+Q86Y26).
Reply text: > 1 µM

Inquiry: Please report the measured DC50 for Cc1sc2c(c1C)C(c1ccc(Cl)cc1)=N[C@@H](CC(=O)N1CCC(CN3CCN(c4ccc5c(C)nn(C6CCC(=O)NC6=O)c(=O)c5c4)CC3)CC1)c1nnc(C)n1-2 (some centres unmarked) tested on BRD4-NUT (Homo sapiens, UniProt O60885+Q86Y26).
Reply text: < 0.1 µM

Inquiry: Please report the measured DC50 for Cc1sc2c(c1C)C(c1ccc(Cl)cc1)=N[C@@H](CC(=O)N1CC(N3CCN(c4ccc5c(=O)n(C6CCC(=O)NC6=O)nc(C)c5c4)CC3)C1)c1nnc(C)n1-2 (some centres unmarked) tested on BRD4-NUT (Homo sapiens, UniProt O60885+Q86Y26).
Reply text: < 0.1 µM

====

Tested on: RPMI2650
Test: Cancer cell antiproliferative activity / cell viability in RPMI2650 cells (72 h treatment)
Type: cell-based
Conditions: Homo sapiens, RPMI-2650, RPM12650, read-out: Cell Viatility (IC50)
ATTRIBUTE_MEASURED: IC50

- CC[C@@H]1c2nnc(C)n2-c2cnc(Nc3ccc(C(=O)N4CCN(c5ccc6c(=O)n(C7CCC(=O)NC7=O)nc(C)c6c5)CC4)cc3OC)nc2N1CC1CCCCC1 (stereo partly drawn): > 1 µM
- CC[C@@H]1c2nnc(C)n2-c2cnc(Nc3ccc(C(=O)N4CCN(CC5CCN(c6ccc(NC7CCC(=O)NC7=O)cc6F)CC5)CC4)cc3OC)nc2N1CC1CCCCC1 (stereo partly drawn): 0.1 to 1 µM
- CC[C@@H]1c2nnc(C)n2-c2cnc(Nc3ccc(C(=O)N4CCN(c5ccc6c(=O)n(C7CCC(=O)NC7=O)ncc6c5)CC4)cc3OC)nc2N1CC1CCCCC1 (stereo partly drawn): > 1 µM

Inquiry: Give IC50 for the following compound: CC[C@@H]1c2nnc(C)n2-c2cnc(Nc3ccc(C(=O)NC4CCN(C(=O)C5CCN(c6ccc7c(C)nn(C8CCC(=O)NC8=O)c(=O)c7c6)CC5)CC4)cc3OC)nc2N1CC1CCCCC1 (stereo partly drawn)
Reply text: < 0.1 µM

Inquiry: Give IC50 for the following compound: CC[C@@H]1c2nnc(C)n2-c2cnc(Nc3ccc(C(=O)NCCOCCOCCOCCNc4cccc5cnn(C6CCC(=O)NC6=O)c(=O)c45)cc3OC)nc2N1CC1CCCCC1 (stereo partly drawn)
Reply text: 0.1 to 1 µM

Inquiry: Give IC50 for the following compound: CCC1c2nnc(C)n2-c2cnc(Nc3ccc(C(=O)NC4CCN(CCN5CCN(c6ccc(NC7CCC(=O)NC7=O)cc6F)CC5)CC4)cc3OC)nc2N1CC1CCCCC1 (stereo not drawn)
Reply text: > 1 µM

Inquiry: Give IC50 for the following compound: CC[C@@H]1c2nnc(C)n2-c2cnc(Nc3ccc(C(=O)NC4CCN(C(=O)CN5CCN(c6ccc7c(=O)n(C8CCC(=O)NC8=O)nc(C)c7c6)CC5)CC4)cc3OC)nc2N1CC1CCCCC1 (stereo partly drawn)
Reply text: > 1 µM

Inquiry: Give IC50 for the following compound: CC[C@@H]1c2nnc(C)n2-c2cnc(Nc3ccc(C(=O)NC4CCN(c5ccc6c(=O)n(C7CCC(=O)NC7=O)nc(C)c6c5)CC4)cc3OC)nc2N1CC1CCCCC1 (stereo partly drawn)
Reply text: > 1 µM

Inquiry: Give IC50 for the following compound: CC[C@@H]1c2nnc(C)n2-c2cnc(Nc3ccc(C(=O)NC4CCN(CCCN5CCN(c6ccc7c(=O)n(C8CCC(=O)NC8=O)nc(C)c7c6)CC5)CC4)cc3OC)nc2N1CC1CCCCC1 (stereo partly drawn)
Reply text: > 1 µM

Inquiry: Give IC50 for the following compound: CC[C@@H]1c2nnc(C)n2-c2cnc(Nc3ccc(C(=O)N4CCN(CCNc5cccc6c(C)nn(C7CCC(=O)NC7=O)c(=O)c56)CC4)cc3OC)nc2N1CC1CCCCC1 (stereo partly drawn)
Reply text: > 1 µM

Inquiry: Give IC50 for the following compound: CC[C@@H]1c2nnc(C)n2-c2cnc(Nc3ccc(C(=O)N4CCN(CCNc5ccc6c(C)nn(C7CCC(=O)NC7=O)c(=O)c6c5)CC4)cc3OC)nc2N1CC1CCCCC1 (stereo partly drawn)
Reply text: < 0.1 µM

FYI, the data here is from patent EP4640686A1.
